# assaySystem: PEG-3 (UniProt Q6IN02)
# Sequence (Q6IN02 whole entry, looked up): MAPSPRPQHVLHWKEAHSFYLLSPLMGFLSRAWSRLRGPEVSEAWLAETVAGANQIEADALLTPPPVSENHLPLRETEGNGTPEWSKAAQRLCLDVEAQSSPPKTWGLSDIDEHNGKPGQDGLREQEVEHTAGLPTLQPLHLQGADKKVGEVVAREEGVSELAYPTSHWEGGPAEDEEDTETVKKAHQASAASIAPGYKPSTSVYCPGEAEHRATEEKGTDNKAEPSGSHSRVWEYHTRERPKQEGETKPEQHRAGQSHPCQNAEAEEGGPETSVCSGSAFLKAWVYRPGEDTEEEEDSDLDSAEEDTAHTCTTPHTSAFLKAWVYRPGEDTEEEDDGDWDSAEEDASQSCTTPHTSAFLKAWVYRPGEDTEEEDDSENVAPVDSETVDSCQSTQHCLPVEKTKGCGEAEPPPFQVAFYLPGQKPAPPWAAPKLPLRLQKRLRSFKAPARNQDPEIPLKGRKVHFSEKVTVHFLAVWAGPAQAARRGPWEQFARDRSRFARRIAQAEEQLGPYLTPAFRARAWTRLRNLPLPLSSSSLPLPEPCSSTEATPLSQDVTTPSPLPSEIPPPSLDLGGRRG
# assayInfo: Peg3 promoter luciferase inhibitors, potency, dose response, cell-based, HeLa, CREF/GAPDH counter-screen panel (AID 624167)
# conditionNotes: HeLa PEG-Prom luciferase reporter, overnight, CREF/GAPDH counter-screens, mean of runs
The source made the active and inactive calls.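 Rule for the calls: active = mean IC50 for reducing PEG3 promoter reporter signal at or below a set limit, with IC50 above the limit in both counter screens; inactive = the rest, including counter screen hits.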
The categories you may choose from are True for active, False for inactive

Lookup: Called result for "CN(C)CCCN(C(=O)c1ccc(C(=O)c2ccccc2)cc1)c1nc2cc3c(cc2s1)OCO3"
Found: True

Lookup: Called result for "COc1cc(/C=C2\SC(=S)N(CCC(=O)N3CCCCC3)C2=O)cc(OC)c1OC"
Found: False

Lookup: Called result for "CC(=O)c1cccc(NC(=O)c2cccc3c(-c4cccnc4)coc23)c1"
Found: False

Lookup: Called result for "Cc1cc(C(=O)Nc2cccc(C(=O)O)c2)oc1C"
Found: True

Lookup: Called result for "O=C(Nc1ccc(CN2CCCCC2)cc1)Nc1ccc(Br)cc1Cl"
Found: False

Lookup: Called result for "CCn1c(C)cc(C(=O)COC(=O)c2ccccc2[N+](=O)[O-])c1C"
Found: True

Lookup: Called result for "O=C1/C(=C/c2ccccc2Cl)SC(=S)N1CCCC(=O)N(CCO)c1ccccc1"
Found: True

Lookup: Called result for "COc1ccc(-c2oc3ccc(-c4cc(OC)c(OC)c(OC)c4)cc3c2C#Cc2ccccn2)cc1"
Found: True

Lookup: Called result for CN(C(=O)COC(=O)/C=C/c1cccc([N+](=O)[O-])c1)C1CCS(=O)(=O)C1 (stereo unspecified)
Found: True

Lookup: Called result for "Cc1nn(-c2ccccc2Cl)c(Cl)c1/C=N/Nc1nc2ccccc2s1"
Found: True

Lookup: Called result for "CCOc1ccc(Nc2c3ccccc3nc3ccccc23)cc1"
Found: True

Lookup: Called result for COc1cccc(C2CC3C(=O)C=CC2N3Cc2ccccc2)c1 (stereo unspecified)
Found: True

Lookup: Called result for "COc1cc(SC)ccc1C(=O)Nc1ncc(C)s1"
Found: True

Lookup: Called result for Cc1nn(-c2ccccc2)c2c1C(c1ccc([N+](=O)[O-])cc1)N1C(=N2)C(=O)Nc2ccccc21 (stereo unspecified)
Found: False

Lookup: Called result for COc1ccc(-c2nsc3c(N4CCCCC4C)ncnc23)cc1 (stereo unspecified)
Found: True

Lookup: Called result for "c1ccc(-c2cc(-c3ccccc3)[n+](-c3ccccc3)c(-c3ccccc3)c2)cc1"
Found: True

Lookup: Called result for "Cc1cccc(-n2ncc3c(N(C)C4CCCCC4)ncnc32)c1"
Found: False

Lookup: Called result for "CCc1nc(Nc2ccc(N3CCN(C(C)=O)CC3)cc2)c2oc3ccccc3c2n1"
Found: False

Lookup: Called result for "COc1ccc(OC)c(-c2cc(C(=O)N3CCN(c4ncccn4)CC3)c3ccccc3n2)c1"
Found: False

Lookup: Called result for "COc1ccc(/C=C/C(=O)c2ccc3c(c2)OCCO3)cc1[N+](=O)[O-]"
Found: True

Lookup: Called result for "COc1ccccc1NC(=S)NC1CCCCCCCCCCC1"
Found: False

###

# assaySystem: PEG-3 (UniProt Q6IN02)
# assayInfo: Peg3 promoter luciferase inhibitors, potency, dose response, cell-based, HeLa, CREF/GAPDH counter-screen panel (AID 624167)
# conditionNotes: HeLa PEG-Prom luciferase reporter, overnight, CREF/GAPDH counter-screens, mean of runs
Activity calls are given as the source filed them.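 Rule for the calls: active = mean IC50 for reducing PEG3 promoter reporter signal at or below a set limit, with IC50 above the limit in both counter screens; inactive = the rest, including counter screen hits.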
The categories you may choose from are Yes (active), No (inactive)

Lookup: Called result for CCC1(OC(=O)CN)C(=O)OCc2c1cc1n(c2=O)Cc2cc3ccccc3nc2-1 (stereo not given)
Found: Yes

Lookup: Called result for "CCN(CC)CCCCNc1ncc2cc(-c3cc(OC)cc(OC)c3)c(NC(=O)NC(C)(C)C)nc2n1"
Found: No

Lookup: Called result for "COc1ccc(C(=O)Nc2cccc(C(=O)N/N=C/c3ccc(OC)cc3OC)c2)cc1"
Found: No

Lookup: Called result for "CCOC(=O)c1sc2nc(CSc3ccccc3)nc(N3CCCN(C)CC3)c2c1C"
Found: Yes

Lookup: Called result for CC(C)CC(NS(=O)(=O)OCC(Cl)(Cl)Cl)c1ccccc1 (stereo not given)
Found: No

Lookup: Called result for "CN(C)CCCNc1ncnc2oc(-c3ccccc3)c(-c3ccccc3)c12"
Found: Yes

Lookup: Called result for "C[C@@]12C(=O)Nc3cc(Cl)ccc3C(=O)N1[C@H]1c3cc(Cl)ccc3OC[C@@H]1[C@@H]2c1ccccc1"
Found: Yes

Lookup: Called result for "O=c1cnnc(N/N=C/c2ccccn2)[nH]1"
Found: Yes

Lookup: Called result for "CCCn1nc(C(=O)Nc2nc(-c3ccccn3)cs2)c2ccccc2c1=O"
Found: Yes

Lookup: Called result for "O=Nc1c(O)ccc2cc(S(=O)(=O)O)ccc12"
Found: Yes
